As a worked illustration, we turn to pIC50 data collected for 6his-tagged full length BACE 1 from SF9 cells (Homo sapiens, UniProt P56817).
Structures can show the parent of a compound that is named as a salt.
Schema: pIC50 number; meaning minus log10 of the concentration expressed in molar units.

pIC50 of Cc1cc(OC(F)F)ccc1C1(c2cccc(-c3cncc(C#N)c3)c2)COC(N)=N1 (racemic) [Example 200, formate] , assay on 6his-tagged full length BACE 1 from SF9 cells (Homo sapiens, UniProt P56817), is 6.42

The observed pIC50 for COc1cncc(-c2cccc(C3(c4ccc(OC)c(C)c4)COC(N)=N3)c2)c1 (racemic) [Example 47, formate] when tested with 6his-tagged full length BACE 1 from SF9 cells (Homo sapiens, UniProt P56817) stands at 6.40

Known value: 6his-tagged full length BACE 1 from SF9 cells (Homo sapiens, UniProt P56817) pIC50 of the compound COc1cncc(-c2cccc(C3(c4ccc(OC(F)F)c(Cl)c4)COC(N)=N3)c2)c1 (racemic) [Example 117, formate] equals 7.10

# value of pIC50, 6his-tagged full length BACE 1 from SF9 cells (Homo sapiens, UniProt P56817), item COc1ccc(C2(c3cccc(-c4cc(Cl)ccc4F)c3)COC(N)=N2)cc1 (racemic) [Example 22, formate] = 6.08

6his-tagged full length BACE 1 from SF9 cells (Homo sapiens, UniProt P56817) data for Cc1cc(C2(c3cccc(-c4cncc(C#N)c4)c3)COC(N)=N2)ccc1OC(F)F (racemic) [Example 203, formate] ; its pIC50: 6.96

Bench note, 6his-tagged full length BACE 1 from SF9 cells (Homo sapiens, UniProt P56817): NC1=NC(c2cccc(-c3cncnc3)c2)(c2ccc(OC(F)F)c(Cl)c2)CO1 (racemic) [Example 118, formate] , pIC50 reads 6.70

----------
Target: 6his-tagged full length BACE 1 from SF9 cells (Homo sapiens)
Sequence (P56817 46-501): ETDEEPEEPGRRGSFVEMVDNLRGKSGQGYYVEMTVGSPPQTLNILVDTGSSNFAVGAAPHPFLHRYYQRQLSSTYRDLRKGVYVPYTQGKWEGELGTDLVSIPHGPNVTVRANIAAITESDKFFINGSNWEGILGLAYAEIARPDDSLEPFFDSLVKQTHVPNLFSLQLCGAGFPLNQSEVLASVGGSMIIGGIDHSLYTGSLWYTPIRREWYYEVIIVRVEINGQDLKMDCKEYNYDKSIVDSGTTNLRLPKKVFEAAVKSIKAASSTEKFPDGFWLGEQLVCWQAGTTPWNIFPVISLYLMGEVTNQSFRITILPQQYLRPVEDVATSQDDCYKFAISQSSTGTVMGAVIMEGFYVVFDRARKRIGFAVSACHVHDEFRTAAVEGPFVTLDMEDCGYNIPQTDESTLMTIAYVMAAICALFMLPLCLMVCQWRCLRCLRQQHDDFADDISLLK
Counter-ions that a name gives are not always drawn.
endpoint: IC50 (nM)
Return type: number; implicit unit nM.

The reported value for NC1=NC(c2cccc(-c3cncc(F)c3)c2)(c2ccc(OC(F)F)cc2F)CO1 (racemic) [Example 142, formate] in terms of IC50 is 840

The molecule listed as Cc1cnc(F)c(-c2cccc(C3(c4ccc(OC(F)F)cc4C)COC(N)=N3)c2)c1 (racemic) [Example 131, formate] has a reported IC50 of 460

The molecule COc1ccc(C2(c3ccc(F)c(-c4cccnc4F)c3)COC(N)=N2)cc1C (racemic) [Example 57, formate] showed IC50 equal to 410

Record CCOc1ccc(C2(c3cccc(-c4cncc(OC)c4)c3)COC(N)=N2)cc1 (racemic) [Example 83, formate] . Reported IC50: 970

The reported value for COc1ccc(C2(c3cccc(-c4cccc(OC)c4)c3)COC(N)=N2)cc1 (racemic) [Example 15, formate] in terms of IC50 is 820

The molecule COc1ccc(C2(c3ccc(F)c(-c4cncc(F)c4)c3)COC(N)=N2)cc1Cl (racemic) showed IC50 equal to 640

# molecule CCOc1ccc(C2(c3cccc(-c4cncc(F)c4)c3)COC(N)=N2)cc1C (racemic) [Example 75, formate] ; its IC50 = 440

Form field IC50, entry COc1cncc(-c2cccc(C3(c4ccc(OC)c(Cl)c4)COC(N)=N3)c2)c1 (racemic) : 130

Per the record, CCOc1ccc(C2(c3cccc(-c4cncnc4)c3)COC(N)=N2)cc1C (racemic) [Example 67, formate] has IC50 of 890

So, COc1cncc(-c2cc(C3(c4ccc(OC)c(C)c4)COC(N)=N3)ccc2F)c1 (racemic) [Example 51, formate] ? Its IC50 was 120

The value of IC50 measured for the molecule CCOc1cc(Nc2ccccc2)cc(C2(c3ccc(OC(F)F)c(C)c3)COC(N)=N2)c1 (racemic) turned out to be 660

Note to self: IC50 recorded for Cc1cc(OC(F)F)ccc1C1(c2cccc(-c3cccc(Cl)c3)c2)COC(N)=N1 (racemic) [Example 149, formate] was 960

Entry Cc1cnc(F)c(-c2cccc(C3(c4ccc(OC(F)F)c(C)c4)COC(N)=N3)c2)c1 (racemic) [Example 104, formate] ; IC50 = 130

The recorded IC50 for COc1cncc(-c2cc(C3(c4ccc(OC(F)F)c(C)c4)COC(N)=N3)ccc2F)c1 (racemic) [Example 121, formate] is 50
